test system: MDA-MB-435 melanoma; experiment: NCI-60 one-dose screen, 48 h (100 = growth as untreated, 0 = no growth, -100 = all killed); settings: 10 µM unless noted
About 83,000 compounds went through this panel and 20% of them were active in at least one assay; those are over-represented in the sample as a whole.
Classification field: enter y for growth values not below 20%, n for values below it.

These solved cases illustrate the format of a correct answer.
{"COMPOUND": "CC(=NCc1ccccc1)c1ccc(O)cc1O", "CLASS_NAME": "y"}
{"COMPOUND": "COc1cc2ncnc(Nc3ccc(F)c(Cl)c3)c2cc1OCC(=O)N1CCCCC1", "CLASS_NAME": "y"}

Can COc1nc(=O)n(C2C=CC(=O)O2)cc1F (stereo not given) be said to have growth at or above 20%?
y

Also C[C@@H]1CC[C@@H]2[C@@H]1[C@H](OC(=O)/C=C/c1ccccc1)[C@]1(c3ccccc3)C[C@@H](NC(=O)CO)[C@@]2(C)O1 , if possible.
y

What about this compound? NC1=CC(=O)c2cccnc2C1=O
n

Then what about the compound Nc1c(C(=O)Nc2ccncc2)sc2nc3c(cc12)CCCCCCCC3 ?
n

And the next one, c1cc(NCCCCN2CCOCC2)c2ccc3c(ccc4c(NCCN5CCOCC5)ccnc43)c2n1 ?
y

Also, O=C(/C=C/C12c3ccccc3C(c3ccccc31)C1C(=O)NC(=O)C12)c1ccncc1 (stereo not given) please.
n

// same read-out, input: Cc1ccc(C(=O)c2ccc(CC(=O)N=Nc3c(O)[nH]c4ccc(OC(F)(F)F)cc34)n2C)cc1
y

// next record O=C(Nc1ncc(Cc2cccc(C(F)(F)F)c2)s1)c1ccc(-n2cnnn2)cc1
y
